type: cell-based; conditions: human
Counter-ions that a name gives are not always drawn.
We begin with a simple list: items and their reported CC50 at 72 h.

- molecule: "CC(C)(C)NC(=O)N[C@H](C(=O)N1C[C@H]2[C@@H]([C@H]1C(=O)NC(CC1CCC1)C(=O)C(N)=O)C2(C)C)C(C)(C)C (stereo partly drawn)"
  CC50 at 72 h: "> 100 µM"
- molecule: "Clc1ccc(Cn2c(CN3CCCC3)nc3ccccc32)cc1 [clemizole, clemizole hydrochloride]"
  CC50 at 72 h: "35 µM"
- molecule: "NC(=O)c1ncn([C@@H]2O[C@H](CO)[C@@H](O)[C@H]2O)n1"
  CC50 at 72 h: "> 100 µM"

----------
assay type: cell-based; conditions: human
Structures can show the parent of a compound that is named as a salt.
Recorded CC50 at 72 h values for a group of compounds are listed next.

- compound: "CC(C)(C)NC(=O)N[C@H](C(=O)N1C[C@H]2[C@@H]([C@H]1C(=O)NC(CC1CCC1)C(=O)C(N)=O)C2(C)C)C(C)(C)C (some centres unmarked)"
  value_modifier: ">"
  CC50 at 72 h [µM]: 100
- compound: "Clc1ccc(Cn2c(CN3CCCC3)nc3ccccc32)cc1 [clemizole, clemizole hydrochloride]"
  value_modifier: "="
  CC50 at 72 h [µM]: 40
